// data source = patent US20250376535A1

- assayedTarget: T1, recombinant human CD40-Fc (human, UniProt P25942 21-193)
- T1 construct: also called rh-CD40-Fc; CD40-hFc
- T1 sequence (P25942 21-193): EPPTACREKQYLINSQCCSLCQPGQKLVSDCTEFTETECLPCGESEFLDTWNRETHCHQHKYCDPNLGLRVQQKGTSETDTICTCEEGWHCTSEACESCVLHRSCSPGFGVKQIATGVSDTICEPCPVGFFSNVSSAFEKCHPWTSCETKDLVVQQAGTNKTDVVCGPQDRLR
- protocolSummary: ELISA, CD40-Fc coated, VHH at 1000 nM
As shown below, each of these binders has a reported OD450 value.
Give your answer as a number; write no unit.

# count of solved cases: 3
binder	OD450
pgDD40-HZ-24 (VHH, not shown: small tags and cut ends, also called pgDD40-HG-24) VHH: EVQLVESGGGSVQAGGSLRLSCAASLSTFSNYRMGWFRRAPGKERELVARIEPHGVVDYGDSVKGRFTISRDNAKNTVTVYLHMNSLKPEDTAVYYCNALRLISGRYDPLFSSWGQGTQVTVSS	1.81
pgDD40-SZ-2 (VHH, not shown: small tags and cut ends) VHH: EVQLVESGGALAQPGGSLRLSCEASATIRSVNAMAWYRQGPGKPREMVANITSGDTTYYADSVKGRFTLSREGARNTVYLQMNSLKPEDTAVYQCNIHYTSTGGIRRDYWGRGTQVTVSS	1.64
pgDD40-SZ-7 (VHH, not shown: small tags and cut ends) VHH: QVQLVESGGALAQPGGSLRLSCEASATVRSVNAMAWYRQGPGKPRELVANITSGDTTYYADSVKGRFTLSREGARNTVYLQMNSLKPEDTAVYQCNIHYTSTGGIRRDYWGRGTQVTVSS	1.67

Query string: Return reported OD450. Input binder: pgDD40-HZ-47 (VHH, not shown: small tags and cut ends) VHH: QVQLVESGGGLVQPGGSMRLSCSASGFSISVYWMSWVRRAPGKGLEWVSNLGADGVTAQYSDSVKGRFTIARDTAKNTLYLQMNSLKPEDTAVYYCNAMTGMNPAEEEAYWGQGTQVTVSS
Result string: 0.569

Query string: Return reported OD450. Input binder: pgDD40-SZ-1 (VHH, not shown: small tags and cut ends) VHH: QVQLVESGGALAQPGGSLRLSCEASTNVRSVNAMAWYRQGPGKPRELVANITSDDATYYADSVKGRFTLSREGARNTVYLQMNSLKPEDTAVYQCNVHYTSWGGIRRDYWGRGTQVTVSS
Result string: 1.68

Query string: Return reported OD450. Input binder: pgDD40-HZ-28 (VHH, not shown: small tags and cut ends) VHH: EVQLVESGGGLVQAGGSLRLSCVASERTFTPVRMGWFRQAPGKEREIVAAITWSDGSTYYADAVKGRFTISRDNALNAVYLQIDSLKPEDTAVYVCAASTSPYSTHLQFRYWGQGTQVTVSS
Result string: 0.419

Query string: Return reported OD450. Input binder: pgDD40-HZ-15 (VHH, not shown: small tags and cut ends) VHH: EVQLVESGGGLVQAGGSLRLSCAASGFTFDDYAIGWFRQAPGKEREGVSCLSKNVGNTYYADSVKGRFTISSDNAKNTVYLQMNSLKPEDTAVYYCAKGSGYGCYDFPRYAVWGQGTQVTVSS
Result string: 0.479

Query string: Return reported OD450. Input binder: pgDD40-SZ-12 (VHH, not shown: small tags and cut ends) VHH: EVQLVESGGGLVQPGGSLKLSCAASGFAFSRYTMSWVRQAPGKGLEWVSGIDSGGGRTSYINSVKGRFTISRDNAKNTLYLQMNSLKPEDTAVYHCAQGGDSGSYYRTSWGQGTQVTVSS
Result string: 1.54
